experiment: Plasma pharmacokinetics of BI 187004 after single oral doses (LC–MS/MS); details: male, human, plasma, oral, 40 mg, Plasma C10 gMean (range), 40 mg single dose; 10 h
READOUT TYPE: concentration at 10 h (nM)
Give bare numbers, in nM.

Query: concentration at 10 h; subject: "N#Cc1ccc2c(c1)[C@H]1CCCN(C(=O)c3ccc4[nH]cnc4c3)[C@H]1C2" 796

====

assay: Plasma pharmacokinetics of BI 187004 after single oral doses (LC–MS/MS); conditions: male, human, plasma, po, 20 mg, BI 187004 plasma concentrations, 20 mg single oral, planned time 36 h, Min
READOUT TYPE: concentration at 36 h (nM)
Numbers only, in nM.

Entry N#Cc1ccc2c(c1)[C@H]1CCCN(C(=O)c3ccc4[nH]cnc4c3)[C@H]1C2 [BI 187004] has what concentration at 36 h? 27.8

====

experiment: Plasma pharmacokinetics of BI 187004 after single oral doses (LC–MS/MS); settings: male, human, plasma, po, 160 mg, BI 187004 plasma concentrations, 160 mg single oral, planned time 10 h, Min
READOUT TYPE: concentration at 10 h (nM)
One number for each entry, in nM.

What does the record list as concentration at 10 h for "N#Cc1ccc2c(c1)[C@H]1CCCN(C(=O)c3ccc4[nH]cnc4c3)[C@H]1C2" ? 1940

====

assay: Plasma pharmacokinetics of BI 187004 after single oral doses (LC–MS/MS); settings: male, human, plasma, po, 10 mg
READOUT TYPE: AUC(0-inf) (µM·h)
One number for each entry, in µM·h.

What value of AUC(0-inf) has been recorded for this entry: "N#Cc1ccc2c(c1)[C@H]1CCCN(C(=O)c3ccc4[nH]cnc4c3)[C@H]1C2" 5.91

====

test: Plasma pharmacokinetics of BI 187004 after single oral doses (LC–MS/MS); conditions: male, human, plasma, oral, 80 mg, Plasma C10 gMean (range), 80 mg single dose; 10 h
READOUT TYPE: concentration at 10 h
Could you give the number and then its unit, please?

Form field: reported concentration at 10 h of "N#Cc1ccc2c(c1)[C@H]1CCCN(C(=O)c3ccc4[nH]cnc4c3)[C@H]1C2" 1530 nM

====

assay: Plasma pharmacokinetics of BI 187004 after single oral doses (LC–MS/MS); conditions: male, human, plasma, po, 40 mg, BI 187004 plasma concentrations, 40 mg single oral, planned time 8 h, Min
READOUT TYPE: concentration at 8 h (nM)
Give bare numbers, in nM.

Fill in: concentration at 8 h of N#Cc1ccc2c(c1)[C@H]1CCCN(C(=O)c3ccc4[nH]cnc4c3)[C@H]1C2 [BI 187004] is ___ 606

====

experiment: Plasma pharmacokinetics of BI 187004 after single oral doses (LC–MS/MS); conditions: male, human, plasma, po, 20 mg, BI 187004 plasma concentrations, 20 mg single oral, planned time 1.5 h, gMean
READOUT TYPE: concentration at 1.5 h (nM)
Give bare numbers, in nM.

concentration at 1.5 h for "N#Cc1ccc2c(c1)[C@H]1CCCN(C(=O)c3ccc4[nH]cnc4c3)[C@H]1C2" ? 960

====

assay: Plasma pharmacokinetics of BI 187004 after single oral doses (LC–MS/MS); details: male, human, plasma, po, 80 mg, BI 187004 plasma concentrations, 80 mg single oral, planned time 6 h, Median
READOUT TYPE: concentration at 6 h
Answer by giving the amount and then stating its unit.

Endpoint output: concentration at 6 h of N#Cc1ccc2c(c1)[C@H]1CCCN(C(=O)c3ccc4[nH]cnc4c3)[C@H]1C2 [BI 187004] . Value? 1870 nM
